Hi there, I'd appreciate the recorded log10 EC50 for every entry that follows.
- SYSTEM_UNDER_TEST: human CB2 receptors (Homo sapiens (Human))
- Sequence (P34972 whole entry): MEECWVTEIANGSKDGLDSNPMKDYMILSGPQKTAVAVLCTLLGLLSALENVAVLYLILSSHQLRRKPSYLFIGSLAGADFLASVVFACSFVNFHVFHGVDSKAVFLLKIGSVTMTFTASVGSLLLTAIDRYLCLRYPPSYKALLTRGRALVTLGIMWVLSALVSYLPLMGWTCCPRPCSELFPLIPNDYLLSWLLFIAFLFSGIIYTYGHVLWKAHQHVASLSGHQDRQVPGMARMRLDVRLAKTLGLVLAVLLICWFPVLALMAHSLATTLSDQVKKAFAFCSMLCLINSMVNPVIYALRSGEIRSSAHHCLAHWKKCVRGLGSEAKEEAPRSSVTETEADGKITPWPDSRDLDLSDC
- ASSAY_NAME: cAMP assay (functional), CHO cells expressing human CB2 receptors
- Type: cell-based
- TEST_SETTINGS: functional cAMP assay, CHO cells expressing human CB2; read-out: human CB2 EC50
All values: base-10 log of EC50 in nM.

For the molecule shown here, CC(=O)OC1(C)CCN(C(=O)c2cnc(N3CC(F)(F)C3)c(OCC3CC3)n2)C1 (stereo not drawn) [Example 29] , give the reported log10 EC50. 0.94

For the molecule shown here, COC(=O)[C@H]1CCCN1C(=O)c1cnc(N2CC(F)(F)C2)c(OCC2CC2)n1 [Example 22] , give the reported log10 EC50. 2.40

For the molecule shown here, O=C(c1cnc(N2CC(F)(F)C2)c(OCC2CC2)n1)N1CC(F)(F)C(F)(F)C1 [Example 30] , give the reported log10 EC50. 1.42

For the molecule shown here, CC1(C)CC(C(N)=O)N(C(=O)c2cnc(C3CC3)c(OCC3CC3)n2)C1 (stereo not drawn) [Example 34] , give the reported log10 EC50. 0.20

For the molecule shown here, CC(=O)OC1(C)CCN(C(=O)c2cnc(C3CC3)c(OCC3CC3)n2)C1 (stereo not drawn) [Example 25] , give the reported log10 EC50. 2.04

For the molecule shown here, CC1(C)CN(C(=O)c2cnc(N3CC(F)(F)C3)c(OCC3CC3)n2)CCO1 [Example 13] , give the reported log10 EC50. 1.84

For the molecule shown here, CC(=O)O[C@H]1CCN(C(=O)c2cnc(N3CC(F)(F)C3)c(OCC3CC3)n2)C1 [Example 27] , give the reported log10 EC50. 2.43

For the molecule shown here, O=C(c1cnc(N2CC(F)(F)C2)c(OCC2CC2)n1)N1CC2CC1CO2 (stereo not drawn) [Example 6] , give the reported log10 EC50. 2.41

For the molecule shown here, CN(C(=O)c1cnc(N2CC(F)(F)C2)c(OCC(F)(F)F)n1)C(C)(C)C [Example 31] , give the reported log10 EC50. 2.11

For the molecule shown here, C[C@@H]1CCCN1C(=O)c1cnc(N2CC(F)(F)C2)c(OCC2CC2)n1 [Example 2] , give the reported log10 EC50. 0.69

For the molecule shown here, CN(C(=O)c1cnc(N2CC(F)(F)C2)c(OCC2CC2)n1)C(C)(C)C [Example 7] , give the reported log10 EC50. 0.51

For the molecule shown here, O=C(c1cnc(N2CC(F)(F)C2)c(OCC2CC2)n1)N1CCOCC12CC2 [Example 10] , give the reported log10 EC50. 1.18

For the molecule shown here, CC1(C)COCCN1C(=O)c1cnc(N2CC(F)(F)C2)c(OCC2CC2)n1 [Example 4] , give the reported log10 EC50. 0.63

For the molecule shown here, NC(=O)C1CCCCN1C(=O)c1cnc(N2CC(F)(F)C2)c(OCC2CC2)n1 (single isomer, unassigned; (-)) [Example 36] , give the reported log10 EC50. 2.34

For the molecule shown here, NC(=O)C1CSCCN1C(=O)c1cnc(N2CC(F)(F)C2)c(OCC2CC2)n1 (single isomer, unassigned; (-)) [Example 37] , give the reported log10 EC50. 2.49

For the molecule shown here, COC(=O)[C@@H]1CCCN1C(=O)c1cnc(C2CC2)c(OCC2CC2)n1 [Example 16] , give the reported log10 EC50. 2.28

For the molecule shown here, CN(C)C(=S)[C@H]1CCCN1C(=O)c1cnc(N2CC(F)(F)C2)c(OCC2CC2)n1 [Example 24] , give the reported log10 EC50. 2.52

For the molecule shown here, CC1(O)C[C@@H](C(N)=O)N(C(=O)c2cnc(N3CC(F)(F)C3)c(OCC3CC3)n2)C1 (stereo partly drawn) [Example 41] , give the reported log10 EC50. 1.95

For the molecule shown here, COCCN(C(=O)c1cnc(N2CC(F)(F)C2)c(OCC2CC2)n1)C(C)(C)C [Example 3] , give the reported log10 EC50. 0.60

For the molecule shown here, NC(=O)[C@@H]1CC(F)(F)CN1C(=O)c1cnc(N2CC(F)(F)C2)c(OCC2CC2)n1 [Example 19] , give the reported log10 EC50. 0.76

For the molecule shown here, O=C(c1cnc(C2CC2)c(OCC2CC2)n1)N1CCOCC12CC2 [Example 17] , give the reported log10 EC50. 2.15

For the molecule shown here, COCC(C)(C)N(C)C(=O)c1cnc(C2CC2)c(OCC2CC2)n1 [Example 14] , give the reported log10 EC50. 1.16

For the molecule shown here, CC1(C)CC(C(N)=O)N(C(=O)c2cnc(N3CC(F)(F)C3)c(OCC3CC3)n2)C1 (stereo not drawn) [Example 35] , give the reported log10 EC50. 1.06

For the molecule shown here, O=C(c1cnc(C2CC2)c(OCC2CC2)n1)N1CC(F)(F)C(F)(F)C1 [Example 26] , give the reported log10 EC50. 2.09

For the molecule shown here, O=C1CN(C(=O)c2cnc(N3CC(F)(F)C3)c(OCC3CC3)n2)CCO1 [Example 23] , give the reported log10 EC50. 1.26

For the molecule shown here, O=C(c1cnc(N2CC(F)(F)C2)c(OCC2CC2)n1)N1CCC(F)(F)C1 [Example 8] , give the reported log10 EC50. 1.47

For the molecule shown here, NC(=O)C1CCCCN1C(=O)c1cnc(N2CC(F)(F)C2)c(OCC2CC2)n1 (stereo not drawn) [Example 33] , give the reported log10 EC50. 2.52

For the molecule shown here, COCC(C)(C)N(C)C(=O)c1cnc(N2CC(F)(F)C2)c(OCC2CC2)n1 [Example 12] , give the reported log10 EC50. 0.96

For the molecule shown here, NC(=O)[C@@H]1CC(F)(F)CN1C(=O)c1cnc(N2CC(F)(F)C2)c(OCC(F)F)n1 [Example 42] , give the reported log10 EC50. 2.49

For the molecule shown here, C[C@H]1CCCN1C(=O)c1cnc(N2CC(F)(F)C2)c(OCC2CC2)n1 [Example 5] , give the reported log10 EC50. 1.91

For the molecule shown here, C[C@@H]1CCCN1C(=O)c1cnc(C2CC2)c(OCC2CC2)n1 [Example 1] , give the reported log10 EC50. 1.76

For the molecule shown here, CC1(C)CC(C(N)=O)N(C(=O)c2cnc(N3CC(F)(F)C3)c(OCC3CC3)n2)C1 (single isomer, unassigned; (-)) [Example 38] , give the reported log10 EC50. 0.15

For the molecule shown here, CC1(C)CCCN1C(=O)c1cnc(N2CC(F)(F)C2)c(OCC(F)(F)F)n1 [Example 32] , give the reported log10 EC50. 1.91

Reference for the values: patent US9512141B2
